Assay: in vitro
Format: cell-based
Conditions: human, mt-4 cells
Please go through the items and note down their CC50.

The recorded CC50 for CCC(=CCN1Cc2cc(Cl)cc3[nH]c(=S)n(c23)C[C@@H]1C)CC.Cl [compound 7, monohydrochloride] is 5.2 µg/mL

Memo: CCC(=CCN1Cc2cc(Cl)cc3[nH]c(=O)n(c23)C[C@@H]1C)CC , reported CC50: > 10 µg/mL

Lab book: CC50 of CCC(=CCN1Cc2c(C)ccc3[nH]c(=O)n(c23)C[C@@H]1C)CC noted as 14.3 µg/mL

Recorded values, source patent EP0538297B9.
